# Tested on: HTT mRNA
# assayInfo: Splicing RT-qPCR assay, HTT canonical (CJ) and alternative (AJ) junction mRNA
# Type: cell-based
# measurementSetup: Homo sapiens; Table 7; AC50 = 50% response in AJ mRNA increase; RT-qPCR, A673 or K562 cells, 24 hours treatment
pEC50: −log10 of the molar value. Structures can show the parent of a compound that is named as a salt.
metric: pEC50

{"compound": "CN1CCC(n2cc3cc(-c4cc(F)c5nn(C)cc5c4)sc3n2)CC1 [Compound 150]", "metric": "pEC50", "observedValue": "6.00 to 7.00"}
{"compound": "Cn1cc2cc(-c3cc4cn(C5CCNCC5)nc4s3)c(O)c(F)c2n1 [Compound 215]", "metric": "pEC50", "observedValue": "6.00 to 7.00"}
{"compound": "Cc1cn2nc(-c3cc4cn(C5CCNCC5)nc4s3)c(O)c2c(C)n1 [Compound 213, hydrochloride]", "metric": "pEC50", "observedValue": "5.00 to 6.00"}
{"compound": "Cc1nc2cc(O)c(-c3nc4cn(C5CCNCC5)nc4s3)cc2o1 [Compound 1104]", "metric": "pEC50", "observedValue": "6.00 to 7.00"}
{"compound": "Cn1cc2cc(N3Cc4sc(C5CCNCC5)cc4C3=O)cc(F)c2n1 [Compound 1119]", "metric": "pEC50", "observedValue": "> 7.00"}
{"compound": "C[C@@H]1C[C@@H](c2cc3sc(-c4cc(F)c5nn(C)cc5c4)nc3s2)CCN1 (single isomer, unassigned) [Compound 193]", "metric": "pEC50", "observedValue": "> 7.00"}
{"compound": "Cn1cc2cc(-c3nc4cn(C5CCNCC5)nc4s3)cc(F)c2n1 [Compound 1100]", "metric": "pEC50", "observedValue": "6.00 to 7.00"}
{"compound": "Cc1c(O)c(-c2cc3cn(C4CCNCC4)nc3s2)cc2cn(C)nc12 [Compound 221]", "metric": "pEC50", "observedValue": "< 5.00"}
{"compound": "CC1CN(c2cc3sc(-c4cc(F)c5nn(C)cc5c4)nc3s2)CCN1 (centres unmarked) [Compound 135]", "metric": "pEC50", "observedValue": "6.00 to 7.00"}
{"compound": "Cc1cn2cc(-c3nc4sc(C5CCNCC5)cc4s3)nc2c(C)n1 [Compound 239]", "metric": "pEC50", "observedValue": "5.00 to 6.00"}
{"compound": "Cn1cc2cc(-n3cc4cc(C5CCNCC5)sc4n3)c(O)cc2n1 [Compound 220]", "metric": "pEC50", "observedValue": "5.00 to 6.00"}
{"compound": "COc1c(-c2cc3cn(C4CCNCC4)nc3s2)nn2cc(C)nc(C)c12 [Compound 219]", "metric": "pEC50", "observedValue": "< 5.00"}
{"compound": "Cc1cn2cc(-c3nc4sc(C5CCNCC5)cc4s3)ccc2n1 [Compound 271]", "metric": "pEC50", "observedValue": "6.00 to 7.00"}
{"compound": "Cn1cc2c(F)cc(-n3cc4cc(C5CCNCC5)sc4n3)cc2n1 [Compound 174]", "metric": "pEC50", "observedValue": "< 5.00"}
{"compound": "Cc1nc2c(F)cc(-c3nc4sc(C5CCNCC5)cc4s3)cc2o1 [Compound 132]", "metric": "pEC50", "observedValue": "> 7.00"}
{"compound": "Cn1cc2cc(N3Cc4sc(C5CCNCC5)cc4C3=O)ncc2n1 [Compound 1125]", "metric": "pEC50", "observedValue": "5.00 to 6.00"}
{"compound": "Cn1cc2cc(-c3nc4sc(C5CCNCC5)cn4n3)cc(F)c2n1 [Compound 103]", "metric": "pEC50", "observedValue": "< 5.00"}
